Taken from PubChem BioAssay (NCI).

Form field: TGI (one value per entry).
Tested on: NCI/ADR-RES ovarian
protocol_details: NCI tumour cell line growth inhibition, 48 h

NC1=Nc2ccccc2Sc2nncn21 | > 100 µM
CC(C)(C)C1=C(Br)C(F)(C(C)(C)C)OP1(=O)c1ccccc1 (stereo not given) | 30.8 µM
CC(C)(C)OC(=O)NCC(CNC(=O)OC(C)(C)C)C(N)=O | > 100 µM
[N-]=[N+]=NCN1C(=O)C2C3C=CC(C2C1=O)C1C2C(=O)N(CN=[N+]=[N-])C(=O)C2C31 (stereo not given) | > 100 µM
C#CC1(O)CCC2[C@@H]3CCc4cc(Oc5nc(F)nc(-c6c(C)c(C(=O)OCC)n7ccccc67)n5)ccc4C3CC[C@@]21C (stereo not given in full) | > 100 µM
Fc1cc(C2=Nn3c(COc4ccccc4Cl)nnc3S/C2=C\c2ccc(Cl)cc2)c(Cl)cc1Cl | 30.1 µM
S=P1(Sc2ccccc2)Oc2ccc3ccccc3c2-c2c(ccc3ccccc23)O1 | > 100 µM
COc1cc(-c2nn(-c3cccc(NC(=O)Nc4ccc(Cl)c(C(F)(F)F)c4)c3)cc2-c2ccncc2)ccc1Cl | 7.99 µM
CC1C(C)(C)C23CC12C1(OCCO1)C3Br (stereo not given) | > 100 µM
O=C(c1c(F)c(F)c(F)c(F)c1F)c1c(F)c(F)c(F)c(F)c1F | 14.5 µM

What value of TGI has been reported for the following compound? Nn1c(CCCCCCCCc2nnc(-c3c(O)ccc4ccccc34)n2N)nnc1-c1c(O)ccc2ccccc12 > 100 µM
